Attribution: paper PMC6835155

Target system: LIMK1KD (Homo sapiens, UniProt P53667)
Construct: His6 (N, cleaved yes); made in house; host or cells: baculovirus; Sf9 for virus, TriEx insect cells for expression
Sequence (P53667 330-637): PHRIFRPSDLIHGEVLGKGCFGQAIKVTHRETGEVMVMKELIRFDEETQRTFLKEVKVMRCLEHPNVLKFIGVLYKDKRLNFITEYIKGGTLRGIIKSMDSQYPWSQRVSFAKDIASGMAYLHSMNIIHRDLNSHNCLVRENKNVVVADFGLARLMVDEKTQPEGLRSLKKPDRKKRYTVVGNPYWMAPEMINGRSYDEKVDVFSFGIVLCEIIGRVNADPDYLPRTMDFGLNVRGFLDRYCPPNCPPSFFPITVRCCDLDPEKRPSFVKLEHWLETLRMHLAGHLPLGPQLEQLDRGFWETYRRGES
Method: Differential (dynamic) scanning fluorimetry (DSF) assay, LIMK1KD
Format: binding
Condition parameters: 2 µM LIMK1KD, compound 10 µM, single shot; read-out: TM Shift LIMK1 (K)
Measured property: ΔTm at 10 µM
// unit must come after the numeric part

Record request: ΔTm at 10 µM value, item CN1CCN(C2CCN(C(=O)Nc3cc(Oc4ccc(NC(=O)C5(C(=O)Nc6ccc(F)cc6)CC5)c(F)c4)ccn3)CC2)CC1 [Golvatinib (E7050), Golvatinib]
3 °C

Quick one: ΔTm at 10 µM of CS(=O)(=O)CCNCc1ccc(-c2ccc3ncnc(Nc4ccc(OCc5cccc(F)c5)c(Cl)c4)c3c2)o1 [Lapatinib (GW-572016) Ditosylate, Lapatinib] ?
0.2 °C

Data request, read-out ΔTm at 10 µM, for CCC(=O)N1CCN(c2ccc(-n3c(=O)ccc4cnc5ccc(-c6cnc7ccccc7c6)cc5c43)cc2C(F)(F)F)CC1 [Torin 1]
-0.2 °C

###

Target system: LIMK1KD (Homo sapiens)
Construct: His6 (N, cleaved yes); made in house; host or cells: baculovirus; Sf9 for virus, TriEx insect cells for expression
Method: Differential (dynamic) scanning fluorimetry (DSF) assay, LIMK1KD
Assay type: binding
Condition parameters: 2 µM LIMK1KD, compound 10 µM, single shot
Use Y when the recorded TM Shift LIMK1 (K) is no lower than 0.8 K; use N when it is lower.

Study these solved cases before continuing.
COc1cc2nccc(Oc3ccc(NC(=O)Nc4ccc(F)cc4F)c(F)c3)c2cc1OC
N
CN(c1ccccc1CNc1nc(Nc2ccc3c(c2)CC(=O)N3)ncc1C(F)(F)F)S(C)(=O)=O
Y
Cc1cc(CN2CCN(c3c(Br)cnc4nc(-c5ccc(N6CCN(C)CC6)cc5)[nH]c34)CC2)no1
Y

Is it the case that `O=C(Nc1cccc(Nc2ncc(Br)c(NCCc3cnc[nH]3)n2)c1)N1CCCC1` has TM Shift LIMK1 (K) reaching or exceeding 0.8 K?
Y

Could you tell me if the measured TM Shift LIMK1 (K) of CC(C)CCN1c2nc(Nc3cc(F)c(O)c(F)c3)ncc2N(C)C(=O)C1C (stereo not shown) reaches 0.8 K or more?
Y

Decide: TM Shift LIMK1 (K) of `N#C/C(=C(/N)Sc1ccc(N)cc1)c1ccccc1C(F)(F)F` >= 0.8 K?
N

###

Target system: LIMK1KD (Homo sapiens)
Construct: His6 (N, cleaved yes); made in house; host or cells: baculovirus; Sf9 for virus, TriEx insect cells for expression
Method: Differential (dynamic) scanning fluorimetry (DSF) assay, LIMK1KD
Assay type: binding
Condition parameters: 2 µM LIMK1KD, compound 10 µM, single shot
Listed here: items and their measured TM Shift LIMK1 (K).

I would be grateful if you could share the reported TM Shift LIMK1 (K) for `C[C@@H]1COCCN1c1cc(C2(S(C)(=O)=O)CC2)nc(-c2cccc3[nH]ccc23)n1` .
0.8 K

For `NC1(Cc2ccc(Cl)cc2)CCN(c2ncnc3[nH]ccc23)CC1` , what is its reported TM Shift LIMK1 (K)?
0.4 K

TM Shift LIMK1 (K) lookup needed for `COc1ccc(Cl)cc1NC(=O)Nc1cc(C)nc2ccccc12` , thanks.
0.2 K

Requested field: TM Shift LIMK1 (K). Item: `O=C1NC(=O)/C(=C/c2ccc3c(c2)OC(F)(F)O3)S1`
0.3 K
